biological target: FXa (Homo sapiens); experiment: Determination of selectivity: FXa inhibition, chromogenic substrate S2765 assay; format: biochemical; conditions: fold selectivity for FXIIa over FXa
Sequence (P00742 235-488 limits assumed): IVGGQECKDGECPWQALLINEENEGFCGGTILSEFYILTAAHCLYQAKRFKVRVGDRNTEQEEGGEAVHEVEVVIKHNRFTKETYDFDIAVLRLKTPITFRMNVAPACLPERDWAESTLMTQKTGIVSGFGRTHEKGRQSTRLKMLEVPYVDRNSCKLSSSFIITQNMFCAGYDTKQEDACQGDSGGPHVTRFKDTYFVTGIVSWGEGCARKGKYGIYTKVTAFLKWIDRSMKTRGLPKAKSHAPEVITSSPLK
Sequence (P00742 41-179 partner limits assumed): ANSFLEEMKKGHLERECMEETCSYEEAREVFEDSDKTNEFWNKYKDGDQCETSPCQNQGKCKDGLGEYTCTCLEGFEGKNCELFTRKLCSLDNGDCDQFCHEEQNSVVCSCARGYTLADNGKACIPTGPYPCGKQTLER
attribute.measured: FXa (human)/FXIIa alpha (human)

In the examples that follow, each entry is paired with its recorded FXa (human)/FXIIa alpha (human).
1) COc1ccc(C[C@@H]2C[C@@H](C(=O)NCc3ccc4c(c3)nnn4C)N(C(=O)[C@H](N)CCC(=O)N3CCCC3C)C2)cc1 (stereo partly shown): ∘∘∘
2) COc1ccc(C[C@@H]2C[C@@H](C(=O)NCc3ccc4c(c3)nnn4C)N(C(=O)[C@H](N)CC3CCCc4ccccc43)C2)cc1 (stereo partly shown): ∘∘∘
3) COc1cc(CNC(=O)[C@@H]2C[C@H](C)CN2C(=O)[C@H](N)CCc2ccccc2)ccc1CN: ∘∘
4) Cn1nnc2cc(CNC(=O)[C@@H]3C[C@H](NCCCc4ccccc4)CN3C(=O)[C@H](N)CCc3ccccc3)ccc21: ∘∘

// field: FXa (human)/FXIIa alpha (human); key: Cn1nnc2cc(CNC(=O)[C@@H]3C[C@@H](Cc4cccc5c4CCO5)CN3C(=O)[C@H](N)CCC(=O)N3CCCC3)ccc21 ; value = ∘∘∘

// field: FXa (human)/FXIIa alpha (human); key: Cn1nnc2cc(CNC(=O)[C@@H]3C[C@@H](Cc4ccncc4)CN3C(=O)[C@H]3C[C@@H](c4ccccc4)CN3)ccc21 ; value = ∘∘∘

// field: FXa (human)/FXIIa alpha (human); key: NCc1ncc(CNC(=O)[C@@H]2CCCN2C(=O)[C@H](N)CCc2ccccc2)s1 ; value = ∘∘

// field: FXa (human)/FXIIa alpha (human); key: Nc1cc(CNC(=O)[C@@H]2C[C@H](NC(=O)c3ccccc3)CN2C(=O)[C@H](N)CCc2ccccc2)ccn1 ; value = ∘∘

// field: FXa (human)/FXIIa alpha (human); key: Cn1nnc2cc(CNC(=O)[C@@H]3C[C@@H](Cc4ccc5c(c4)OCO5)CN3C(=O)[C@H]3C[C@@H](c4ccccc4)CN3)ccc21 ; value = ∘∘∘
